- Tested on: HepG2
- procedureSummary: Antiproliferative activity against human HepG2 cells assessed as reduction in cell growth measured after 48 hrs by MTT assay
- Format: functional, cell-based
- measurementContext: HepG2, 48 h
# note: exactly 10 µM is not below, so it is not met; use met for IC50 strictly under it

Solved cases (3 shown):
# compound, targetOrTestSystem, class
records = [
    ("CC(C)(C)C1CCc2c(sc3c2c(-c2ccccc2)nc(=O)n3Cc2cnc(Cl)s2)C1 (centres undefined)", "HepG2", "met"),
    ("Cc1noc(C)c1Cn1c(=O)nc(-c2cccc(Cl)c2)c2c3c(sc21)CC(C(C)(C)C)CC3 (centres undefined)", "HepG2", "met"),
    ("Cc1noc(C)c1Cn1c(=O)nc(-c2ccc(Cl)c(Cl)c2)c2c3c(sc21)CC(C(C)(C)C)CC3 (centres undefined)", "HepG2", "not met"),
]

Exam item: State whether 10 µM exceeds IC50 recorded for Cc1noc(C)c1Cn1c(=O)nc(-c2ccc(F)cc2)c2c3c(sc21)CC(C(C)(C)C)CC3 (centres undefined) .
Marked response: not met

Exam item: hey, is IC50 for Cc1noc(C)c1Cn1c(=O)nc(-c2ccccc2)c2c3c(sc21)CC(C(C)(C)C)CC3 (centres undefined) lower than 10 µM or not?
Marked response: not met

Exam item: Would you kindly verify if IC50 of Cc1noc(C)c1Cn1c(=O)nc(-c2ccc(Cl)cc2)c2c3c(sc21)CC(C(C)(C)C)CC3 (centres undefined) is strictly less than 10 µM?
Marked response: not met

Exam item: Regarding COC(=O)c1ccc(-c2nc(=O)n(Cc3c(C)noc3C)c3sc4c(c23)CCC(C(C)(C)C)C4)cc1 (centres undefined) , kindly confirm whether its IC50 is beneath 10 µM.
Marked response: not met

Exam item: Strictly below 10 µM in IC50? `Cc1sc2c(c1C)C(c1ccc(Cl)cc1)=N[C@@H](CC(=O)OC(C)(C)C)c1nnc(C)n1-2`
Marked response: not met

Exam item: Item Cc1noc(C)c1Cn1c(=O)nc(-c2ccccc2Cl)c2c3c(sc21)CC(C(C)(C)C)CC3 (centres undefined) : IC50 beneath 10 µM, strictly?
Marked response: not met
